Source listed as ChEMBL document CHEMBL1147193.

# Test system: MCF7
# protocol_summary: Anticancer activity against human MCF7 cells assessed as growth of cells at 100 uM relative to untreated cells
# Format: functional
metric_name: Activity

Recorded results for 3 compounds are shown here.
compound | target_or_system | Activity
O=C(CC1Sc2ncnn2C1=O)Nc1ccccc1 (stereo not drawn) | MCF7 | 0%
O=c1/c(=C/C=C\c2ccccc2)sc2ncnn12 | MCF7 | 138%
O=C(CC1Sc2ncnn2C1=O)Nc1ccc(Br)cc1 (stereo not drawn) | MCF7 | 0%

response.value for COc1ccc(NC(=O)CC2Sc3ncnn3C2=O)cc1 (stereo not drawn) (field: Activity) = 0%

response.value for O=c1/c(=C/c2ccc(Cl)cc2)sc2ncnn12 (field: Activity) = 10%

response.value for CCOC(=O)c1ccc(NC(=O)CC2Sc3ncnn3C2=O)cc1 (stereo not drawn) (field: Activity) = 0%

response.value for O=C(CC1Sc2ncnn2C1=O)Nc1ccc(Cl)cc1 (stereo not drawn) (field: Activity) = 0%

response.value for O=c1/c(=C/c2ccc(F)cc2)sc2ncnn12 (field: Activity) = 77%

###

# Tested on: DU-145
# protocol_summary: Growth inhibition of human DU145 cells after 48 hrs by SRB protein assay
# Type: functional
# experimental_setup: DU-145, 48 h
As shown below, each of these compounds has a reported GI50 value.
Number only, in µM; omit the unit.

compound | target_or_system | metric_name | reading
O=C(CC1Sc2ncnn2C1=O)Nc1ccc(Br)cc1 (stereo not given) | DU-145 | GI50 | 38.9
O=c1/c(=C/c2ccc(Cl)cc2)sc2ncnn12 | DU-145 | GI50 | 12.9
O=c1/c(=C/c2ccc(F)cc2)sc2ncnn12 | DU-145 | GI50 | 39.8

Here is the next item to consider.
response.value for COc1ccc(NC(=O)CC2Sc3ncnn3C2=O)cc1 (stereo not given) (field: GI50) = 57.5

###

# Tested on: SK-MEL-28
# protocol_summary: Growth inhibition of human SK-MEL-28 cells after 48 hrs by SRB protein assay
# Type: functional
# experimental_setup: SK-MEL-28, 48 h
As shown below, each of these molecules has a reported GI50 value.
Number only, in µM; omit the unit.

response.value for CCOC(=O)c1ccc(NC(=O)CC2Sc3ncnn3C2=O)cc1 (configuration not stated) (field: GI50) = 91.2

response.value for O=C(CC1Sc2ncnn2C1=O)Nc1ccc(Br)cc1 (configuration not stated) (field: GI50) = 23.4

response.value for O=c1/c(=C/c2ccc(Cl)cc2)sc2ncnn12 (field: GI50) = 16.6

###

# Tested on: NCI-H226
# protocol_summary: Growth inhibition of human NCI-H226 cells after 48 hrs by SRB protein assay
# Format: functional
# experimental_setup: NCI-H226, 48 h
As shown below, each of these compounds has a reported GI50 value.
Number only, in µM; omit the unit.

Recorded results for 4 compounds are shown here.
compound | GI50, µM
O=C(CC1Sc2ncnn2C1=O)Nc1ccc(Br)cc1 (stereo unspecified) | 20
O=c1/c(=C/c2ccc(Cl)cc2)sc2ncnn12 | 20
CCOC(=O)c1ccc(NC(=O)CC2Sc3ncnn3C2=O)cc1 (stereo unspecified) | 26.3
O=C(CC1Sc2ncnn2C1=O)Nc1ccc(Cl)cc1 (stereo unspecified) | 91.2

Here is the next item to consider.
response.value for COc1ccc(NC(=O)CC2Sc3ncnn3C2=O)cc1 (stereo unspecified) (field: GI50) = 22.9

###

# Tested on: DU-145
# protocol_summary: Growth inhibition of human DU145 cells after 48 hrs by SRB protein assay
# Format: functional
# experimental_setup: DU-145, 48 h, read-out: Log TGI (converted)
As shown below, each of these compounds has a reported TGI value.

response.value for O=C(CC1Sc2ncnn2C1=O)Nc1ccc(Br)cc1 (stereo not given) (field: TGI) = > 100 µM

###

# Test system: NCI-H23
# protocol_summary: Growth inhibition of human NCI-H23 cells after 48 hrs by SRB protein assay
# Format: functional
# experimental_setup: NCI-H23, 48 h
metric_name: log10 GI50 (log10 of the value in µM)
All values: base-10 log of GI50 in µM.

compound | log10 GI50
O=C(CC1Sc2ncnn2C1=O)Nc1ccc(Br)cc1 (stereo not given) | 1.32
COc1ccc(NC(=O)CC2Sc3ncnn3C2=O)cc1 (stereo not given) | 1.30
O=C(CC1Sc2ncnn2C1=O)Nc1ccc(Cl)cc1 (stereo not given) | 1.37
O=c1/c(=C/c2ccc(Cl)cc2)sc2ncnn12 | 1.25

Here is the next item to consider.
The compound O=C(CC1Sc2ncnn2C1=O)Nc1ccccc1 (stereo not given) , when measured on NCI-H23, yielded log10 GI50 of -0.94

###

# Test system: SK-MEL-5
# protocol_summary: Growth inhibition of human SK-MEL-5 cells after 48 hrs by SRB protein assay
# Type: functional
# experimental_setup: SK-MEL-5, 48 h, read-out: Log TGI (converted)
metric_name: TGI (µM)
Number only, in µM; omit the unit.

Recorded results for 3 compounds are shown here.
compound | TGI, µM
O=C(CC1Sc2ncnn2C1=O)Nc1ccc(Br)cc1 (configuration not stated) | 38.9
COc1ccc(NC(=O)CC2Sc3ncnn3C2=O)cc1 (configuration not stated) | 35.5
O=C(CC1Sc2ncnn2C1=O)Nc1ccccc1 (configuration not stated) | 47.9

Here is the next item to consider.
response.value for O=c1/c(=C/c2ccc(Cl)cc2)sc2ncnn12 (field: TGI) = 23.4

###

# protocol_summary: Growth inhibition of human MDA-MB-231/ATCC cells after 48 hrs by SRB protein assay
# Type: functional
# experimental_setup: MDA-MB-231, 48 h, read-out: Log TGI (converted)
As shown below, each of these molecules has a reported TGI value.
Number only, in µM; omit the unit.

molecule | TGI (µM)
COc1ccc(NC(=O)CC2Sc3ncnn3C2=O)cc1 (stereo unspecified) | 38.9
O=C(CC1Sc2ncnn2C1=O)Nc1ccc(Br)cc1 (stereo unspecified) | 36.3
O=c1/c(=C/c2ccc(Cl)cc2)sc2ncnn12 | 43.7

response.value for O=C(CC1Sc2ncnn2C1=O)Nc1ccccc1 (stereo unspecified) (field: TGI) = 38.9

response.value for O=C(CC1Sc2ncnn2C1=O)Nc1ccc(Cl)cc1 (stereo unspecified) (field: TGI) = 83.2

###

# Test system: NCI-H460
# protocol_summary: Growth inhibition of human NCI-H460 cells after 48 hrs by SRB protein assay
# Type: functional
# experimental_setup: NCI-H460, 48 h
metric_name: GI50 (µM)
Number only, in µM; omit the unit.

Recorded results for 2 compounds are shown here.
compound | metric_name | unit_annotation | reading
O=c1/c(=C/c2ccc(Cl)cc2)sc2ncnn12 | GI50 | µM | 17.4
O=c1/c(=C/c2ccc(F)cc2)sc2ncnn12 | GI50 | µM | 61.7

The compound O=C(CC1Sc2ncnn2C1=O)Nc1ccccc1 (configuration not stated) , when measured on NCI-H460, yielded GI50 of 35.5

###

# Test system: Hs-578T
# protocol_summary: Growth inhibition of human HS578T cells after 48 hrs by SRB protein assay
# Type: functional
Rule: measured GI50 below 30 µM gets condition met; anything equal to or greater than 30 µM gets condition not met.

The examples below pair each entry with its known result.
molecule | label
COc1ccc(NC(=O)CC2Sc3ncnn3C2=O)cc1 (configuration not stated) | condition met
O=c1/c(=C/c2ccc(Cl)cc2)sc2ncnn12 | condition met
CCOC(=O)c1ccc(NC(=O)CC2Sc3ncnn3C2=O)cc1 (configuration not stated) | condition not met
O=c1/c(=C/c2ccc(F)cc2)sc2ncnn12 | condition not met
O=C(CC1Sc2ncnn2C1=O)Nc1ccccc1 (configuration not stated) | condition met
O=C(CC1Sc2ncnn2C1=O)Nc1ccc(Br)cc1 (configuration not stated) | condition met

Switching to the query record.
[Q] GI50 under 30 µM? Item: O=C(CC1Sc2ncnn2C1=O)Nc1ccc(Cl)cc1 (configuration not stated)
[A] condition not met

###

# protocol_summary: Growth inhibition of human MDA-MB-231/ATCC cells after 48 hrs by SRB protein assay
# Assay type: functional
# experimental_setup: MDA-MB-231, 48 h
As shown below, each of these molecules has a reported GI50 value.
Number only, in µM; omit the unit.

Recorded results for 4 molecules are shown here.
molecule | unit_annotation | GI50
O=C(CC1Sc2ncnn2C1=O)Nc1ccc(Br)cc1 (stereo unspecified) | µM | 17
O=c1/c(=C/c2ccc(Cl)cc2)sc2ncnn12 | µM | 19.1
O=C(CC1Sc2ncnn2C1=O)Nc1ccc(Cl)cc1 (stereo unspecified) | µM | 31.6
COc1ccc(NC(=O)CC2Sc3ncnn3C2=O)cc1 (stereo unspecified) | µM | 21.4

Here is the next item to consider.
response.value for O=C(CC1Sc2ncnn2C1=O)Nc1ccccc1 (stereo unspecified) (field: GI50) = 19.1

###

# System: HL-60
# protocol_summary: Growth inhibition of human HL60 cells after 48 hrs by SRB protein assay
# Assay type: functional
# experimental_setup: HL-60, 48 h
As shown below, each of these molecules has a reported GI50 value.
Number only, in µM; omit the unit.

Recorded results for 4 molecules are shown here.
molecule | target_or_system | unit_annotation | GI50
COc1ccc(NC(=O)CC2Sc3ncnn3C2=O)cc1 (stereo not given) | HL-60 | µM | 27.5
O=c1/c(=C/c2ccc(F)cc2)sc2ncnn12 | HL-60 | µM | 6.46
CCOC(=O)c1ccc(NC(=O)CC2Sc3ncnn3C2=O)cc1 (stereo not given) | HL-60 | µM | 46.8
O=c1/c(=C/c2ccc(Cl)cc2)sc2ncnn12 | HL-60 | µM | 0.537

response.value for O=C(CC1Sc2ncnn2C1=O)Nc1ccc(Br)cc1 (stereo not given) (field: GI50) = 19.5
